target: Period circadian protein homolog 2 (Homo sapiens, UniProt O15055); assay: Reduction of amplitude effect of PER2 in human U2OS cells harboring Per2-dLuc luciferase reporter gene assessed as effects on circadian rhythms
Sequence (O15055 whole entry): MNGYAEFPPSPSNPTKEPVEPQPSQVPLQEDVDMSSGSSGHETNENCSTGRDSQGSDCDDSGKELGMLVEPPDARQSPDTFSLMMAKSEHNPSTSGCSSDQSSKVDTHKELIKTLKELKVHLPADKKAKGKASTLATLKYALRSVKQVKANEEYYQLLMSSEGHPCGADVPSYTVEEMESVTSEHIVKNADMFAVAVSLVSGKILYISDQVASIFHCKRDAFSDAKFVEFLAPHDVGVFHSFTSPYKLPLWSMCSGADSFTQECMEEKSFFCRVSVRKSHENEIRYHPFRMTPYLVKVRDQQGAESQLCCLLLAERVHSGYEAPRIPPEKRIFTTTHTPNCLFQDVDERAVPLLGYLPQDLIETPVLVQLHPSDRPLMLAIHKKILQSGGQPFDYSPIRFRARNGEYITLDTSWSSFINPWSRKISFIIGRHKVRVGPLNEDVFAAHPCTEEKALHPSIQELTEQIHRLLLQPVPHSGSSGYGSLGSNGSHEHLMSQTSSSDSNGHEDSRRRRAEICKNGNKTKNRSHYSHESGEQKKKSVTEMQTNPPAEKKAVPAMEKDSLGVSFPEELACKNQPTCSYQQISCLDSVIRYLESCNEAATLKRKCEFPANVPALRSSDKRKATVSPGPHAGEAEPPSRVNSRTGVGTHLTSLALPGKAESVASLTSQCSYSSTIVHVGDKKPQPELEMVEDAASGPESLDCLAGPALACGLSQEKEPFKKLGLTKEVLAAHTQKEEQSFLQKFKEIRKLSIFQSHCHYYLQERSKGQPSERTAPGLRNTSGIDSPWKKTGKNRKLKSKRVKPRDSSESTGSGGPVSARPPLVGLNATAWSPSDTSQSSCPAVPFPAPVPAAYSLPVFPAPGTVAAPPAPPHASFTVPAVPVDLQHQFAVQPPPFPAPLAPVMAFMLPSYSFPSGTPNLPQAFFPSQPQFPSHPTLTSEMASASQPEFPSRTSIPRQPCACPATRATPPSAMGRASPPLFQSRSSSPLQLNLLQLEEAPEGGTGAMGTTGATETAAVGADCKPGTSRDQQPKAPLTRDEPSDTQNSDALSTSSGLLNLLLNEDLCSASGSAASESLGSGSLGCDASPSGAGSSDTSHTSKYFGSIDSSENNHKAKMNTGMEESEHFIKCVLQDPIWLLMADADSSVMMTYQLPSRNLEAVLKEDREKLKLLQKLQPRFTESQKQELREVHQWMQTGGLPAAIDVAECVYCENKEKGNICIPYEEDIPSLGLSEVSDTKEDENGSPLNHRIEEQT
pEC50: −log10 of the molar value.
Measured Parameter: pEC50

The following compounds have reported results that may help.
CC(C)CN(CC(O)Cn1c2ccccc2c2ccccc21)S(C)(=O)=O (configuration not stated)    6.75
CCS(=O)(=O)N(Cc1ccco1)CC(O)Cn1c2ccccc2c2ccccc21 (configuration not stated)    6.71
CS(=O)(=O)N(CC(O)Cn1c2ccccc2c2ccccc21)C1CC(F)(F)C1 (configuration not stated)    5.90
CN(CC(O)Cn1c2ccccc2c2ccccc21)S(C)(=O)=O (configuration not stated)    6.11
CS(=O)(=O)N(Cc1ccccc1)CC(O)Cn1c2ccccc2c2ccccc21 (configuration not stated)    6.09
CS(=O)(=O)N(CC(O)Cn1c2ccccc2c2ccccc21)c1ccccc1 (configuration not stated)    6.57
CS(=O)(=O)N(CC(O)Cn1c2ccccc2c2ccccc21)c1cccc(F)c1 (configuration not stated)    6.40
CCCS(=O)(=O)N(Cc1ccco1)CC(O)Cn1c2ccccc2c2ccccc21 (configuration not stated)    6.29
CCN(CC(O)Cn1c2ccccc2c2ccccc21)S(C)(=O)=O (configuration not stated)    6.30
CS(=O)(=O)N(Cc1ccco1)CC(O)Cn1c2ccccc2c2ccccc21 (configuration not stated)    6.06

[a] CN1CCN(CC(O)Cn2c3ccccc3c3ccccc32)S1(=O)=O (configuration not stated)
[b] CC(C)N(CC(O)Cn1c2ccccc2c2ccccc21)S(C)(=O)=O (configuration not stated)
[c] CS(=O)(=O)N(CC(O)Cn1c2ccccc2c2ccccc21)c1ccc(F)cc1 (configuration not stated)
Hey, can you sort those compounds up there by pEC50, smallest first? Thanks in advance for listing the labels in the requested order.
c, b, a

###

biological target: Period circadian protein homolog 2 (Homo sapiens, UniProt O15055); assay: Reduction of amplitude effect of PER2 in human U2OS cells harboring Per2-dLuc luciferase reporter gene assessed as effects on circadian rhythms
Measured Parameter: EC50 (nM)

[P] CS(=O)(=O)N(CC(O)Cn1c2ccccc2c2ccccc21)C1CCOCC1 (stereo unspecified)
[Q] O=S1(=O)NCCN1CC(O)Cn1c2ccccc2c2ccccc21 (stereo unspecified)
[R] O=S1(=O)CCCCN1CC(O)Cn1c2ccccc2c2ccccc21 (stereo unspecified)
Task for the reader: rank each entry by its EC50, from the minimum upward. Thanks in advance for listing the labels in the requested order.
Q, R, P

[a] CN1CCCN(CC(O)Cn2c3ccccc3c3ccccc32)S1(=O)=O (stereo unspecified)
[b] CCCN(CC(O)Cn1c2ccccc2c2ccccc21)S(C)(=O)=O (stereo unspecified)
Between item a and item b , which reported EC50 is smaller? To answer, give the label that identifies your chosen option.
b

###

target: Period circadian protein homolog 2 (Homo sapiens, UniProt O15055); experiment: Reduction of amplitude effect of PER2 in human U2OS cells harboring Per2-dLuc luciferase reporter gene assessed as effects on circadian rhythms
pEC50: −log10 of the molar value.
Measured Parameter: pEC50

The following compounds have reported results that may help.
CS(=O)(=O)NCC(O)Cn1c2ccccc2c2ccccc21 (centres undefined)    6.32
O=S1(=O)CCCN1CC(O)Cn1c2ccccc2c2ccccc21 (centres undefined)    6.84
CS(=O)(=O)N(CC(O)Cn1c2ccccc2c2ccccc21)C1COC1 (centres undefined)    5.45
CC(C)S(=O)(=O)N(Cc1ccco1)CC(O)Cn1c2ccccc2c2ccccc21 (centres undefined)    6.36
COCCN(CC(O)Cn1c2ccccc2c2ccccc21)S(C)(=O)=O (centres undefined)    5.99

[P] CS(=O)(=O)N(CC(O)Cn1c2ccccc2c2ccccc21)C1CCC(F)(F)CC1 (centres undefined)
[Q] CS(=O)(=O)N(CC(O)Cn1c2ccccc2c2ccccc21)C1CCC1 (centres undefined)
[R] CS(=O)(=O)N(CC(O)Cn1c2ccccc2c2ccccc21)C1CCCC1 (centres undefined)
Please give the order of these compounds when sorted by pEC50, largest value leading. Thanks in advance for listing the labels in the requested order.
Q, R, P
(Q: 6.89, R: 6.51, P: 6.16)
